Values from PubChem BioAssay AID1159580

In this section, each of the molecules is paired with its reported normalized growth.
# assay_remarks: chemical genetic growth profiling, strain panel (AID 1159580);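 note: tested at 20 µM; growth read once vehicle control cultures reached saturation at 30 °C; 1 = growth at the plate median or of vehicle wells; lower values mean less growth of the strain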
# condition_description: S. cerevisiae deletion strains, growth OD, locus YLL026W, active compounds read low
Among all 5,500 compounds or so, about 2,000 (36%) were called active. About 18% were inconclusive and are not listed. The list shows a part of the results.
Could you keep your reply to the number by itself?

Record excerpt, results attached:
| molecule | endpoint_label | readout_value |
| --- | --- | --- |
| CCCCCN=C(N)N/N=C\c1c[nH]c2ccc(OC)cc12 | normalized growth | 1.01 |
| CCCCC/C=C\C/C=C\C/C=C\C/C=C\CCCC(=O)O | normalized growth | 0.976 |
| CCNc1nc(Cl)nc(NC(C)C)n1 | normalized growth | 1 |
| O=C(O)CCCN1C(=O)c2cccc3cccc(c23)C1=O | normalized growth | 1.01 |
| CC(=O)Oc1ccc2c(c1)CCC1C2CC[C@@]2(C)C1CC[C@@H]2OC(C)=O (stereo partly drawn) | normalized growth | 0.991 |
| CC(=O)OC1CCC23C(=O)OC45CCC(C6=CC(=O)OC6)C4(C)CCC2C5CCC3(O)C1 (stereo not drawn) | normalized growth | 0.996 |
| O=C1OC(=O)C2C3CCC(O3)C12 (stereo not drawn) | normalized growth | 1 |

-- ask Param item = Cc1cccc(N(C)C(=S)Oc2ccc3ccccc3c2)c1 ; retrieve measured normalized growth.
-- reply 0.985
